Measured on: Ecm22 (UniProt Q05958)
Sequence: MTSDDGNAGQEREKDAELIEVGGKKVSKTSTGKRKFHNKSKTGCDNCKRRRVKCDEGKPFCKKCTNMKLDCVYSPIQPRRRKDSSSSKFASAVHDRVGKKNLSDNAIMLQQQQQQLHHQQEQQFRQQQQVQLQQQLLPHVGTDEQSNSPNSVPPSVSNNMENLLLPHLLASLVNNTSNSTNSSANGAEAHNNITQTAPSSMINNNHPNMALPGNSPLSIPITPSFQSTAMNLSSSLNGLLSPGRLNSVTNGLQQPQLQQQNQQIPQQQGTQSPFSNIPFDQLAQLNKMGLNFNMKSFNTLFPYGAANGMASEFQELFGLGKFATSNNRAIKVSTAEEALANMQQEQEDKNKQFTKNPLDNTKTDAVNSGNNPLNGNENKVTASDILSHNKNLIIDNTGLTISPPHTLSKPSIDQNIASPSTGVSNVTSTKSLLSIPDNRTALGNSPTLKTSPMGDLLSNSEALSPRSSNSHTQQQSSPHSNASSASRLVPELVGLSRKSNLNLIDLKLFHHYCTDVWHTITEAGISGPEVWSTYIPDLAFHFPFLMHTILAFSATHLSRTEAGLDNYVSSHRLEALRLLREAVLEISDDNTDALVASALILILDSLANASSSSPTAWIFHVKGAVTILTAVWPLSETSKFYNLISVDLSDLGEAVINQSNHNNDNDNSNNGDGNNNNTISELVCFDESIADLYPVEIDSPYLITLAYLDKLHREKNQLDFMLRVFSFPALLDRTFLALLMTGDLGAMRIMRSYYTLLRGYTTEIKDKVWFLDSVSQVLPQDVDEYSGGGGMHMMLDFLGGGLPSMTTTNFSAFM
Test name: PBM E-score (8-mer binding enrichment) (E-score (-0.5 to 0.5)); higher = stronger / more preferred TF binding
Particulars: protein concentration: 200 nM; construct: GST-full length
In all, about 33,000 sequences were measured (“E-score (-0.5 to 0.5)”: median about -0.041, highest 2% from about 0.37 on). The sample holds the highest values, similar sequences and a random draw of the others, so the mix is not that of the screen.
Tick Met if PBM E-score is 0.2 or greater. Tick Not met if PBM E-score is less than 0.2.

The examples below pair each entry with its known result.
ATACGGAA Met
GGACGGAA Not met
CTACGGAG Not met
ATCCCAGC Not met

**Q:** Check this sequence for PBM E-score at or above 0.2: `AATCCATT`
**A:** Not met

**Q:** Check this sequence for PBM E-score at or above 0.2: `CGTTTATA`
**A:** Met

**Q:** Check this sequence for PBM E-score at or above 0.2: `GGTTACTA`
**A:** Not met

###

Measured on: Ecm22 (UniProt Q05958)
Sequence: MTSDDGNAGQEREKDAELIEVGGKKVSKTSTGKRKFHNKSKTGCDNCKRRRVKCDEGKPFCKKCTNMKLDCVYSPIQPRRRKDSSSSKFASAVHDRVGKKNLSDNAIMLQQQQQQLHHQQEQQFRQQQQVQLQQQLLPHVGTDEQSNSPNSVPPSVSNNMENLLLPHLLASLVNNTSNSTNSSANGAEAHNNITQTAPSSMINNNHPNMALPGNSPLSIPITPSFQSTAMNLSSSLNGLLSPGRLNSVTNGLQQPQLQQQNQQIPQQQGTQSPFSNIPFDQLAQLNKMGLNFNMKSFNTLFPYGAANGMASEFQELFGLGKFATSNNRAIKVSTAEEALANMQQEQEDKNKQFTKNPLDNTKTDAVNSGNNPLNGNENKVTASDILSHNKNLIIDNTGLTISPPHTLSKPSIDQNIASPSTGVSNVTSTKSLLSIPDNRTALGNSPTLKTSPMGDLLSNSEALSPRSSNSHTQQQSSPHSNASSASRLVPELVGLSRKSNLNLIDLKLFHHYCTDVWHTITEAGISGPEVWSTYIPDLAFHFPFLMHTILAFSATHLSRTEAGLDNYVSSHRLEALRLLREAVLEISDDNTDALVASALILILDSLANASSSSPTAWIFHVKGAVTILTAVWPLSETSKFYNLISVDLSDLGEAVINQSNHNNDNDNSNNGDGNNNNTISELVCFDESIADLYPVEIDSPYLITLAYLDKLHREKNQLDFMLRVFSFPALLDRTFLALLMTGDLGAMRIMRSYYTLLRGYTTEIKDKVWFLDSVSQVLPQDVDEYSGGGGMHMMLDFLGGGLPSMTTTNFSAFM
Test name: PBM E-score (8-mer binding enrichment) (E-score (-0.5 to 0.5)); higher = stronger / more preferred TF binding
Particulars: protein concentration: 200 nM; construct: GST-full length
Whole data set: some 33,000 sequences, median “E-score (-0.5 to 0.5)” near -0.041, cut for the highest 2% near 0.37. The list comes from a sample in which the highest values are over-represented; it also holds close analogues and randomly drawn sequences.
Experimental endpoint: PBM E-score

Reference set (5 entries):
AACGAGAC 0.451
GATACGGC 0.32
CTCACGAA 0.128
ATCGAGAT 0.0251
GATACAAA 0.163

**Q:** # return recorded PBM E-score for entry `AACGAGAT`
**A:** 0.438

**Q:** # return recorded PBM E-score for entry `ACTCGTAC`
**A:** 0.484

**Q:** # return recorded PBM E-score for entry `CCTCGTAC`
**A:** 0.491

**Q:** # return recorded PBM E-score for entry `GACGAGAA`
**A:** 0.138

**Q:** # return recorded PBM E-score for entry `TCCGAGAA`
**A:** 0.265

**Q:** # return recorded PBM E-score for entry `TAGAACTA`
**A:** -0.0234

**Q:** # return recorded PBM E-score for entry `ATAGTCGC`
**A:** 0.146

**Q:** # return recorded PBM E-score for entry `CAGAACGC`
**A:** -0.0854

**Q:** # return recorded PBM E-score for entry `CAGAACGG`
**A:** 0.075

**Q:** # return recorded PBM E-score for entry `AATACGAC`
**A:** 0.429

**Q:** # return recorded PBM E-score for entry `ACCGAGAT`
**A:** 0.178

**Q:** # return recorded PBM E-score for entry `ACTCGGAT`
**A:** 0.318

**Q:** # return recorded PBM E-score for entry `GCTGTCTA`
**A:** -0.0813

**Q:** # return recorded PBM E-score for entry `ACTCGTGC`
**A:** 0.0518

**Q:** # return recorded PBM E-score for entry `GATACGCC`
**A:** 0.162

**Q:** # return recorded PBM E-score for entry `ATTACGAA`
**A:** 0.349

**Q:** # return recorded PBM E-score for entry `AATACGAT`
**A:** 0.384

**Q:** # return recorded PBM E-score for entry `GTTACGAA`
**A:** 0.404

**Q:** # return recorded PBM E-score for entry `AAGAACGA`
**A:** 0.453

**Q:** # return recorded PBM E-score for entry `CAGCTAGA`
**A:** -0.0476

**Q:** # return recorded PBM E-score for entry `GAGAACCA`
**A:** -0.098

Cited source for all entries: the supplement of paper PMC3334620
